Target: HCMV polymerase (Human cytomegalovirus, UniProt P08546)
Construct: made in house; host or cells: recombinant baculovirus-infected SF-9 insect cells
Sequence (P08546 whole entry): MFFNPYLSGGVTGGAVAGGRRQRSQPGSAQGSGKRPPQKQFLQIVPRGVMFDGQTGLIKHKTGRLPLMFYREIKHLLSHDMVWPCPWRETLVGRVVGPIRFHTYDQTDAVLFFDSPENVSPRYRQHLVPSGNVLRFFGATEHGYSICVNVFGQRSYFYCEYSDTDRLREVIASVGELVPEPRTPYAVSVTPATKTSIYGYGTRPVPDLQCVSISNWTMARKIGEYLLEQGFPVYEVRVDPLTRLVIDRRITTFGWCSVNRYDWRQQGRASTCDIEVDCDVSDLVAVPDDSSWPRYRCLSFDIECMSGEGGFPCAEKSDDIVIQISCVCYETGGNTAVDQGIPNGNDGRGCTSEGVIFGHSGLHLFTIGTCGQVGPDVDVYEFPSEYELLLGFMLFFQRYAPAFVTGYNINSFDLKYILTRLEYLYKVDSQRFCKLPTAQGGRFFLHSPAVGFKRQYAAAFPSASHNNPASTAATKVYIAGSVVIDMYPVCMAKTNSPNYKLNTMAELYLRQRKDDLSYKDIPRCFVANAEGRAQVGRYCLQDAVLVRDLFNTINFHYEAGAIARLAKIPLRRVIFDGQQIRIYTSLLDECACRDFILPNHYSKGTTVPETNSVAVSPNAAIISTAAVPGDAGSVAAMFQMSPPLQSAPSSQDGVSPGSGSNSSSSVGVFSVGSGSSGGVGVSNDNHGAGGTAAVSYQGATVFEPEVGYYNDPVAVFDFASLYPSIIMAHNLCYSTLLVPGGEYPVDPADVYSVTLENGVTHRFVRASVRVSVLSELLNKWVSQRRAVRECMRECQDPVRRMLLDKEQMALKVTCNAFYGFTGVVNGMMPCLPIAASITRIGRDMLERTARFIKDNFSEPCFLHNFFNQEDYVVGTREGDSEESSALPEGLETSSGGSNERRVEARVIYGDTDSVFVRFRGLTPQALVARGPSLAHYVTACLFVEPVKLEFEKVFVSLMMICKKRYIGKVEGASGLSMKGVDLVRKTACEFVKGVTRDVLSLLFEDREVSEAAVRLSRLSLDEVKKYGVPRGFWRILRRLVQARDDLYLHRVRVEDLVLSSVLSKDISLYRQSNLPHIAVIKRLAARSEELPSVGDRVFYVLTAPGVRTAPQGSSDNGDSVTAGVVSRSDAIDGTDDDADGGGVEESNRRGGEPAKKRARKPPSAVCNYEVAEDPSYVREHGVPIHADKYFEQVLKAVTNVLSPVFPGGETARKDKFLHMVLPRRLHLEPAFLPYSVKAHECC
Experiment: biochemical
Conditions: HCMV polymerase; SPA; modified assay: compounds in 100% DMSO, 4.5 mM DTT
Method: The HCMV polymerase assay is performed using a scintillation proximity assay (SPA) as described in several references, such as N. D. Cook, et al., Pharmaceutical Manufacturing International, pages 49-53 (1992); K. Takeuchi, Laboratory Practice, September issue (1992); U.S. Pat. No. 4,568,649 (1986); which are incorporated by reference herein. Reactions are performed in 96-well plates. […] Plates are incubated 10 min. at 37 C., then equilibrated to room temperature, and counted on a Packard Topcount. […]
pIC50: −log10 of the molar value.
Catalogue of compounds with associated pIC50
endpoint-name: pIC50

# compound, endpoint-name, comparison-symbol, quantitative-result
rows = [
    ("C=Cc1ccc2c(c1)c(=O)c(C(=O)NCc1ccc(Cl)cc1)cn2C", "pIC50", "=", 5.48),
    ("CN(CCO)Cc1ccc2c(c1)c(=O)c(C(=O)NCc1ccc(Cl)cc1)cn2C", "pIC50", "=", 4.92),
    ("CCC(C)n1cc(C(=O)NCc2ccc(Cl)cc2)c(=O)c2cc(C#CCO)cc(OC)c21 (centres unmarked)", "pIC50", "=", 5.64),
    ("O=C(NCc1ccc(Cl)cc1)c1cn(N2CCOCC2)c2ccc(CN3CCOCC3)cc2c1=O", "pIC50", "=", 6.38),
    ("CC(C)(C)OC(=O)Cn1cc(C(=O)NCc2ccc(Cl)cc2)c(=O)c2cc(C#CCO)ccc21", "pIC50", "=", 5.74),
    ("Cn1cc(C(=O)NCc2ccc(Cl)cc2)c(=O)c2cc(CN(CCO)CCO)ccc21", "pIC50", "=", 5.03),
    ("COCCOCCn1cc(C(=O)NCc2ccc(Cl)cc2)c(=O)c2cc(CN3CCC(=O)CC3)ccc21", "pIC50", "=", 5.22),
    ("CCOCCOCCn1cc(C(=O)NCc2ccc(Cl)cc2)c(=O)c2cc(CN3CCOCC3)ccc21", "pIC50", "=", 5.85),
    ("O=C(NCc1ccc(F)cc1)c1cn(N2CCOCC2)c2ccc(CN3CCOCC3)cc2c1=O", "pIC50", "=", 5.96),
    ("Nn1cc(C(=O)NCc2ccc(Cl)cc2)c(=O)c2cc(C#CCO)ccc21", "pIC50", "=", 5.96),
    ("O=C(NCc1ccc(Cl)cc1)c1cn(C2CC2)c2ccc(C#CCO)cc2c1=O", "pIC50", "=", 5.80),
    ("CC(C)(C)n1cc(C(=O)NCc2ccc(Cl)cc2)c(=O)c2cc(C#CCO)ccc21", "pIC50", "=", 5.66),
    ("CCN(CC)CCn1cc(C(=O)NCc2ccc(Cl)cc2)c(=O)c2cc(C#CCO)cc(F)c21", "pIC50", "=", 5.77),
    ("O=C(NCc1ccc(Cl)cc1)c1cn(C2CCOCC2)c2ccc(CN3CCOCC3)cc2c1=O", "pIC50", "=", 6.09),
    ("Cn1cc(C(=S)NCc2ccc(Cl)cc2)c(=O)c2cc(CN3CCOCC3)ccc21", "pIC50", "=", 6.52),
    ("O=C(NCc1ccc(Cl)cc1)c1cn(CCSc2ccccc2)c2ccc(CN3CCOCC3)cc2c1=O", "pIC50", "=", 5.52),
    ("CS(=O)(=O)CCCn1cc(C(=O)NCc2ccc(Cl)cc2)c(=O)c2cc(CN3CCOCC3)ccc21", "pIC50", "=", 6.15),
    ("CN(CCS(=O)(=O)O)C(=O)CCCCCCC(=O)OCCCc1ccc2c(c1)c(=O)c(C(=O)NCc1ccc(Cl)cc1)cn2C1CC1", "pIC50", "<", 4.70),
    ("CCC(C)n1cc(C(=O)NCc2ccc(Cl)cc2)c(=O)c2cc(C#CCO)ccc21 (centres unmarked)", "pIC50", "=", 5.80),
    ("COC[C@H]1CCCN1n1cc(C(=O)NCc2ccc(Cl)cc2)c(=O)c2cc(CN3CCOCC3)ccc21", "pIC50", "=", 4.85),
    ("O=C(NCc1ccc(Cl)cc1)c1cn(CSc2ccccc2)c2ccc(CN3CCOCC3)cc2c1=O", "pIC50", "=", 6.74),
    ("O=C(NCc1ccc(Cl)cc1)c1cn(C2CCS(=O)(=O)CC2)c2ccc(CN3CCOCC3)cc2c1=O", "pIC50", "=", 6.14),
    ("Cn1cc(C(=O)NCc2ccc(Cl)cc2)c(=O)c2cc(CN(CCO)Cc3ccccc3)ccc21", "pIC50", "=", 4.94),
    ("C#CCn1cc(C(=O)NCc2ccc(Cl)cc2)c(=O)c2cc(CN3CCOCC3)ccc21", "pIC50", "=", 5.72),
    ("C[S+]([O-])CCCn1cc(C(=O)NCc2ccc(Cl)cc2)c(=O)c2cc(CN3CCOCC3)ccc21 (centres unmarked)", "pIC50", "=", 6.05),
    ("Cn1cc(C(=O)NCc2ccc(Cl)cc2)c(=O)c2cc(CN3CCCSCC3)ccc21", "pIC50", "=", 5.14),
    ("O=C(O)Cn1cc(C(=O)NCc2ccc(Cl)cc2)c(=O)c2cc(C#CCO)ccc21", "pIC50", "=", 6.00),
    ("COCCOCCn1cc(C(=O)NCc2ccc(Cl)cc2)c(=O)c2cc(C#CCO)ccc21", "pIC50", "=", 5.92),
    ("CCSCCn1cc(C(=O)NCc2ccc(Cl)cc2)c(=O)c2cc(CN3CCOCC3)ccc21", "pIC50", "=", 5.96),
    ("COCCOCCn1cc(C(=O)NCc2ccc(Cl)cc2)c(=O)c2cc(CN3CCOCC3)ccc21", "pIC50", "=", 5.92),
    ("Cn1cc(C(=S)NCc2ccc(Cl)cc2)c(=O)c2cc(C#CCO)ccc21", "pIC50", "=", 6.11),
    ("Cn1cc(C(=O)NCc2ccc(Cl)cc2)c(=O)c2cc(/C=C\\CO)cc(F)c21", "pIC50", ">", 6.11),
]

###

Catalogue of molecules with associated IC50
biological target: HCMV polymerase (Human cytomegalovirus, UniProt P08546); construct: made in house; host or cells: recombinant baculovirus-infected SF-9 insect cells; test: biochemical; conditions: HCMV polymerase; SPA; modified assay: compounds in 100% DMSO, 4.5 mM DTT
endpoint-name: IC50

# structure, endpoint-name, result
records = [
    ("Cn1cc(C(=O)NCc2ccc(Cl)cc2)c(=O)c2cc(CN3CC(=NO)C3)ccc21", "IC50", "8000 nM"),
    ("C=CCOn1cc(C(=O)NCc2ccc(Cl)cc2)c(=O)c2ccccc21", "IC50", "2800 nM"),
    ("Cn1cc(C(=O)NCc2ccc(Cl)cc2)c(=O)c2cc(CN3CCOc4ccccc43)ccc21", "IC50", "2200 nM"),
    ("Cn1cc(C(=O)NCc2ccc(Cl)cc2)c(=O)c2cc(C#CCO)cc(F)c21", "IC50", "1000 nM"),
]

###

target: HCMV polymerase (Human cytomegalovirus, UniProt P08546); construct: made in house; host or cells: recombinant baculovirus-infected SF-9 insect cells; experiment: biochemical; details: HCMV polymerase; SPA; modified assay: compounds in 100% DMSO, 4.5 mM DTT
endpoint-name: IC50 (µM)

# compound, unit-string, quantitative-result
rows = [
    ("CS(=O)(=O)Cn1cc(C(=O)NCc2ccc(Cl)cc2)c(=O)c2cc(CN3CCOCC3)ccc21 [Example 80]", "µM", 1.1),
    ("COCCOCCn1cc(C(=O)NCc2ccc(Cl)cc2)c(=O)c2cc(CN(C)[C@H](C)[C@@H](O)c3ccccc3)ccc21 [Example 88]", "µM", 5.9),
    ("O=C(NCc1ccc(Br)cc1)c1cn(N2CCOCC2)c2ccc(CN3CCOCC3)cc2c1=O [Example 124]", "µM", 1.2),
    ("O=C(NCc1ccc(Cl)cc1)c1cn(CCOCCO)c2ccc(CN3CCOCC3)cc2c1=O [Example 57]", "µM", 1.2),
    ("O=C(NCc1ccc(Cl)cc1)c1cn(CCCSCCCO)c2ccc(CN3CCOCC3)cc2c1=O [Example 66]", "µM", 1.1),
    ("O=C(NCc1ccc(Cl)cc1)c1cn(CS(=O)(=O)c2ccc(Cl)cc2)c2ccc(CN3CCOCC3)cc2c1=O [Example 103]", "µM", 0.83),
    ("O=C(NCc1ccc(Cl)cc1)c1cn(C2CC2)c2ccc(CCCO)cc2c1=O [Example 26]", "µM", 0.53),
    ("COn1cc(C(=O)NCc2ccc(Cl)cc2)c(=O)c2ccccc21 [Example 123]", "µM", 8.2),
    ("Cn1cc(C(=O)NCc2ccc(Cl)cc2)c(=O)c2cc(CCCOP(=O)(OC(C)(C)C)OC(C)(C)C)ccc21 [Example 32]", "µM", 27.2),
    ("CSCn1cc(C(=O)NCc2ccc(Cl)cc2)c(=O)c2cc(CN3CCOCC3)ccc21 [Example 73]", "µM", 1.1),
    ("Cn1cc(C(=O)NCc2ccc(Cl)cc2)c(=O)c2cc(CCCO)cc(OCCO)c21 [Example 4]", "µM", 0.6),
    ("CN(Cc1ccc2c(c1)c(=O)c(C(=O)NCc1ccc(Cl)cc1)cn2C)CC(O)c1ccc(O)cc1 (centres unmarked) [Example 74]", "µM", 0.89),
    ("O=C(NCc1ccc(Cl)cc1)c1cn(CCOCCO)c2ccc(C#CCO)cc2c1=O [Example 55]", "µM", 2.3),
    ("Cn1cc(C(=O)NCc2ccc(Cl)cc2)c(=O)c2cc(CN=[N+]=[N-])ccc21 [Example 51]", "µM", 1.3),
    ("COCCOCCn1cc(C(=O)NCc2ccc(Cl)cc2)c(=O)c2cc(CN(C)CC#N)ccc21 [Example 86]", "µM", 2.5),
    ("Cn1cc(C(=O)NCc2ccc(Cl)cc2)c(=O)c2cc(CCCO)cc(OC(CO)CO)c21 [Example 5]", "µM", 1.6),
    ("CSCCCn1cc(C(=O)NCc2ccc(Cl)cc2)c(=O)c2cc(CN3CCOCC3)ccc21 [Example 61]", "µM", 1.1),
    ("CC(C)n1cc(C(=O)NCc2ccc(Cl)cc2)c(=O)c2cc(C#CCO)ccc21 [Example 1]", "µM", 1.7),
    ("CC(C)(C)OCCOCCn1cc(C(=O)NCc2ccc(Cl)cc2)c(=O)c2cc(CN3CCOCC3)ccc21 [Example 91]", "µM", 2.1),
    ("COCCOCCn1cc(C(=O)NCc2ccc(Cl)cc2)c(=O)c2cc(CN(C)CC(O)c3ccc(O)cc3)ccc21 (centres unmarked) [Example 90]", "µM", 4.4),
    ("COc1cc(C(O)CN(C)Cc2ccc3c(c2)c(=O)c(C(=O)NCc2ccc(Cl)cc2)cn3C)ccc1O (centres unmarked) [Example 77]", "µM", 1.3),
    ("C=Cn1cc(C(=O)NCc2ccc(Cl)cc2)c(=O)c2cc(C#CCO)ccc21 [Example 21]", "µM", 1.4),
    ("O=C(NCc1ccc(Cl)cc1)c1cn(C[S+]([O-])c2ccc(Cl)cc2)c2ccc(CN3CCOCC3)cc2c1=O (centres unmarked) [Example 102]", "µM", 0.59),
    ("CCN(CC)CCn1cc(C(=O)NCc2ccc(Cl)cc2)c(=O)c2cc(C#CCO)ccc21 [Example 12]", "µM", 2),
    ("CN1CCC(n2cc(C(=O)NCc3ccc(Cl)cc3)c(=O)c3cc(CN4CCOCC4)ccc32)CC1 [Example 109]", "µM", 0.48),
    ("COCCOCCn1cc(C(=O)NCc2ccc(Cl)cc2)c(=O)c2cc(CCCO)ccc21 [Example 83]", "µM", 0.6),
    ("Cn1cc(C(=O)NCc2ccc(Cl)cc2)c(=O)c2cc(C#CCO)ccc21 [Example 31]", "µM", 1.1),
    ("CN(C)CCCn1cc(C(=O)NCc2ccc(Cl)cc2)c(=O)c2cc(C#CCO)ccc21 [Example 20]", "µM", 3.8),
    ("O=C(NCc1ccc(Cl)cc1)c1cn(CCCN2CCCCC2)c2ccc(C#CCO)cc2c1=O [Example 15]", "µM", 4.1),
    ("COCCOCn1cc(C(=O)NCc2ccc(Cl)cc2)c(=O)c2cc(CN3CCOCC3)ccc21 [Example 105]", "µM", 1.3),
    ("O=C(OCCOCn1cc(C(=O)NCc2ccc(Cl)cc2)c(=O)c2cc(CN3CCOCC3)ccc21)c1ccccc1 [Example 106]", "µM", 3.1),
    ("C[S+]([O-])Cn1cc(C(=O)NCc2ccc(Cl)cc2)c(=O)c2cc(CN3CCOCC3)ccc21 (centres unmarked) [Example 79]", "µM", 1.1),
]
